A collection of binders and their measured SPOT intensity
target: T1, Lsb4, P32793
T1 sequence (P32793 402-468, looked up): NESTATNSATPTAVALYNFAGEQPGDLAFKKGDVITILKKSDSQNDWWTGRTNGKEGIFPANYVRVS
protocol: SPOT array
cond: median of control spots 397

binder: DAPASKPSVPPRNYF
SPOT intensity: 231
//
binder: VRVKKRPLIRPLNSS
SPOT intensity: 16
//
binder: QGYPRQPQRPQRYHP
SPOT intensity: 16
//
binder: IKKRNKIRLPSGSPE
SPOT intensity: 6
//
binder: NPTKSPPPPPSPSTM
SPOT intensity: 4
//
binder: RRRIAYPFYPFKKLG
SPOT intensity: 0
//
binder: HAPPLPPTAPPPPSL
SPOT intensity: 0
//
binder: QRKSLRRPTLSKPAV
SPOT intensity: 3
//
binder: SKIRPTPRKPSRMAT
SPOT intensity: 162
//
binder: KTKQQKPAIPQKKSF
SPOT intensity: 2
//
binder: LKQRFFLMFPKSIIW
SPOT intensity: 0
//
binder: HVRRSILALPLGVLL
SPOT intensity: 4
//
binder: YSRKKLPVVLSKMTL
SPOT intensity: 0
//
binder: TKHKAPPPPPPTAET
SPOT intensity: 0
//
binder: HHNRRKPLEVYFKAT
SPOT intensity: 1
